- Procedure Summary: Toxicity liver stage against HepG2, at 10uM
- Format: cell-based
- Set-up: test concentration 10 uM, cell line HepG2-A16-CD81EGFP
- Test Settings: human, HepG2-A16-CD81EGFP cells; read-out: INHIBITION
Listed here: items and their measured cytotoxicity at 10 µM.
// return numeric value only (unit: %, not printed)

1) CCN(CCO)C(=O)C1CCC(=O)N(CCc2cccc(F)c2)C1 (stereo unspecified)
-4.15
2) COc1ccc(C2=CCN(C(=O)CN(C)CC(N)=O)CC2)cc1
-9.19
3) CSc1[nH]c(=O)c(C(=O)N2CCCC2C2CCCC2)cc1C#N (stereo unspecified)
5.58
4) Cc1ccc(CS(=O)(=O)N2CC[C@H]3[C@H]2CCN3C)cc1
-11.6
5) CN1C(=O)CC(c2cnn(C)c2)C12CCN(CC1CCOCC1)CC2 (stereo unspecified)
-3.19
6) Cc1nc(N2CCC3(CCCN(CCO)C3=O)C2)c2sccc2n1 (stereo unspecified)
-0.456
7) COCCO[C@H]1CCN(C(=O)c2ccsc2)[C@H]1Cc1cnn(C)c1
-72.8
8) CN1CCC(n2nc(Cc3cccc(Cl)c3)nc2Cn2cnnn2)CC1
-12.4

Given the molecule O=C(c1cccs1)N1CCc2c(nc(N3CCCC3)[nH]c2=O)C1 , what is its reported cytotoxicity at 10 µM? -16.3

Given the molecule Cc1ccc(CN2CCC(O)(Cn3ccc4ncccc43)CC2)o1 , what is its reported cytotoxicity at 10 µM? -31.2

Given the molecule Cc1noc([C@@H](C)NCc2cccc(Cl)c2)c1C(=O)O , what is its reported cytotoxicity at 10 µM? -0.802

---

Listed here: items and their measured cytotoxicity at 10 µM.
- Procedure Summary: Toxicity liver stage against HepG2, at 10uM
- Assay type: cell-based
- Set-up: test concentration 10 uM, cell line HepG2-A16-CD81EGFP
- Test Settings: human, HepG2-A16-CD81EGFP cells; read-out: INHIBITION
// return numeric value only (unit: %, not printed)

1) CS(=O)(=O)c1nnc(NC(=O)CCc2ccc(Cl)s2)[nH]1
6.13
2) O=C1NCCCC12CCN(c1nc3c(c(C(F)(F)F)n1)CCCC3)C2 (stereo unspecified)
-7.11

We now examine a further molecule.
Given the molecule O=C1CCCN1CCCN1CCCCC1Cn1cncn1 (stereo unspecified) , what is its reported cytotoxicity at 10 µM? -0.358

---

- Procedure Summary: Toxicity liver stage against HepG2, at 10uM
- Format: cell-based
- Design: test concentration 10 uM, cell line HepG2-A16-CD81EGFP
- Test Settings: human, HepG2-A16-CD81EGFP cells; read-out: INHIBITION
Listed here: items and their measured cytotoxicity at 10 µM.
// return numeric value only (unit: %, not printed)

1. O=S(=O)(Nc1cnn(C2CCOCC2)c1)c1c(F)cccc1F
13.9
2. Cc1nccc(C2CN(Cc3ccc(-c4ccccc4C(=O)O)o3)C2)n1
4.28
3. CN(CCCc1n[nH]c(N)c1C#N)C(=O)Nc1cc(Cl)cc(Cl)c1
11.1

We now examine a further compound.
Given the compound O=C(NCCn1ccnc1)N1CCCC1c1ccsc1 (configuration not stated) , what is its reported cytotoxicity at 10 µM? -6.05

---

- Procedure Summary: Toxicity liver stage against HepG2, at 10uM
- Assay type: cell-based
- Set-up: test concentration 10 uM, cell line HepG2-A16-CD81EGFP
- Test Settings: human, HepG2-A16-CD81EGFP cells; read-out: INHIBITION
Test Readout: cytotoxicity at 10 µM (%)
// return numeric value only (unit: %, not printed)

// worked examples, cytotoxicity at 10 µM included
1) O=C(NCCCc1nc(=O)[nH][nH]1)c1ccc(Cl)cn1
-47.6
2) CCn1ccnc1CN(C)Cc1nc(Cc2ccccc2F)no1
0.686
3) CC(C)CC(NC(=O)Nc1ccc(F)c(Cl)c1)C(=O)O (stereo unspecified)
8.19
4) CC(=O)NCCNC(=O)c1sc(-c2ccc(C)cc2C)nc1C
-7.62
5) CC(CO)CN(Cc1ccccc1)C(=O)c1csc(CN(C)C)n1 (stereo unspecified)
-8.69

Given the compound CN(c1ccc(C#N)cn1)C1CCCN(Cc2noc(C3CC3)n2)C1 (stereo unspecified) , what is its reported cytotoxicity at 10 µM? -17.2

Given the compound O[C@@]1(CNCCOc2ccccc2)CCCN2CCCC[C@@H]21 , what is its reported cytotoxicity at 10 µM? -2.96

---

Listed here: items and their measured cytotoxicity at 10 µM.
- Procedure Summary: Toxicity liver stage against HepG2, at 10uM
- Type: cell-based
- Design: test concentration 10 uM, cell line HepG2-A16-CD81EGFP
- Test Settings: human, HepG2-A16-CD81EGFP cells; read-out: INHIBITION
// return numeric value only (unit: %, not printed)

// worked examples, cytotoxicity at 10 µM included
1. Cc1ccc(C)c(CC(=O)NC2CCS(=O)(=O)CC2)c1
-9.56
2. COCc1noc(C2(c3ccc(F)cc3)CC2)n1
-2.93
3. C=Cn1ncc(CN2CCC(c3ncc(Cl)cc3S(C)(=O)=O)CC2)c1C
6.29

Given the compound CC(C)n1ccnc1CN1CCOC(CC2CCCCC2)C1 (stereo not given) , what is its reported cytotoxicity at 10 µM? -138

---

- Procedure Summary: Toxicity liver stage against HepG2, at 10uM
- Format: cell-based
- Design: test concentration 10 uM, cell line HepG2-A16-CD81EGFP
- Test Settings: human, HepG2-A16-CD81EGFP cells; read-out: INHIBITION
Test Readout: cytotoxicity at 10 µM (%)
// return numeric value only (unit: %, not printed)

1) Cc1ccc(N2CCCC(N3CCC(N(C)C)CC3)C2=O)cc1 (centres undefined)
-5.16
2) Cc1nc(CN(C)C2CCN(Cc3nnc(C4CC4)o3)C2)no1 (centres undefined)
-5
3) Cc1noc(CCCC(=O)Nc2cc(C(F)(F)F)c[nH]c2=O)n1
-10.8
4) CC(=O)c1ccc(C(=O)N2C[C@H]3CC[C@@H](C2)N(CC2CCC2)C3)s1
-5.79

Given the molecule Cc1noc([C@H]2CC[C@@H]3[C@@H](CCN3S(C)(=O)=O)O2)n1 , what is its reported cytotoxicity at 10 µM? -19.3

Given the molecule COCC1CC2(CCN(CC3CC3)CC2)CN1Cc1ccccn1 (centres undefined) , what is its reported cytotoxicity at 10 µM? -97.4

Given the molecule CN(C)CC(=O)N1CCC2(CCN(Cc3cccc(F)c3)CC2)C1 , what is its reported cytotoxicity at 10 µM? 1.11

Given the molecule CCc1nc2c(c(NC3CC3)n1)CCN(C(=O)N1CCN(C)CC1)CC2 , what is its reported cytotoxicity at 10 µM? 0.445

Given the molecule CCSCCn1cc(-c2nccs2)nn1 , what is its reported cytotoxicity at 10 µM? 0.935

---

- Procedure Summary: Toxicity liver stage against HepG2, at 10uM
- Format: cell-based
- Set-up: test concentration 10 uM, cell line HepG2-A16-CD81EGFP
- Test Settings: human, HepG2-A16-CD81EGFP cells; read-out: INHIBITION
Test Readout: cytotoxicity at 10 µM (%)
// return numeric value only (unit: %, not printed)

Given the compound CN(CC(=O)NCc1cc2ccccc2o1)S(C)(=O)=O , what is its reported cytotoxicity at 10 µM? 4.59

Given the compound COc1cc(OC)cc(C2CCN(CC(=O)NCC(F)(F)F)C2)c1 (stereo unspecified) , what is its reported cytotoxicity at 10 µM? 2.29

---

- Procedure Summary: Toxicity liver stage against HepG2, at 10uM
- Assay type: cell-based
- Set-up: test concentration 10 uM, cell line HepG2-A16-CD81EGFP
- Test Settings: human, HepG2-A16-CD81EGFP cells; read-out: INHIBITION
Listed here: items and their measured cytotoxicity at 10 µM.
// return numeric value only (unit: %, not printed)

// worked examples, cytotoxicity at 10 µM included
1. CC(C)Oc1cccc(CNC(=O)NC2(CO)CCCC2)c1
-57.1
2. Cc1cc2nc(SCC(=O)N3CCCC3)n(C)c(=O)c2[nH]1
11.1
3. O=C(CNC1CCc2ncnn2C1)NCCc1cccs1 (stereo unspecified)
-10.9
4. CN(Cc1ccc(-n2cncn2)cc1)Cc1ncc[nH]1
4.67
5. COc1ccc(CCC2CCCN(C(=O)CCc3cc(O)no3)C2)cc1 (stereo unspecified)
-3.66

Given the molecule COc1cc(NC(=O)NCC2CCCO2)cc(OC)c1 (stereo unspecified) , what is its reported cytotoxicity at 10 µM? 15.6

---

Listed here: items and their measured cytotoxicity at 10 µM.
- Procedure Summary: Toxicity liver stage against HepG2, at 10uM
- Type: cell-based
- Set-up: test concentration 10 uM, cell line HepG2-A16-CD81EGFP
- Test Settings: human, HepG2-A16-CD81EGFP cells; read-out: INHIBITION
// return numeric value only (unit: %, not printed)

// worked examples, cytotoxicity at 10 µM included
1) CNc1cc(N2CCCC2CNCc2cccc(C#N)c2)ncn1 (centres undefined)
-10.7
2) COCC(=O)N1CCC(C(=O)N(C)C(C)c2ccon2)CC1 (centres undefined)
1.28
3) O=C(NCc1ccncc1)Nc1cc(C(F)(F)F)c[nH]c1=O
-9.86
4) Cc1cc(C)n(C2CCN(c3ncnc4c3CCNCC4)C2)n1 (centres undefined)
7.82
5) Cc1ccc(C(=O)N2CCC3(CCCC3)CC2)c(=O)[nH]1
2.24
6) CC(C)N(C)Cc1ncn2c1CN(S(=O)(=O)c1cccs1)CCC2
3.62

Given the molecule CCOC(=O)CC(C)Nc1nc(C(C)(C)C)nc2c1cnn2C (centres undefined) , what is its reported cytotoxicity at 10 µM? 6.51

Given the molecule CC1(C)CC(C(=O)N2CCC3(CCC(=O)N(C4CC4)C3)CC2)CCO1 (centres undefined) , what is its reported cytotoxicity at 10 µM? 0.868

Given the molecule NCC1(c2cccc(C(F)(F)F)c2)CC1 , what is its reported cytotoxicity at 10 µM? -11.2

Given the molecule O=C(c1ccccc1F)N1CCOC(c2nc(-c3ncccn3)no2)C1 (centres undefined) , what is its reported cytotoxicity at 10 µM? -2.5

Given the molecule Cc1cccc(C(=O)N2CCC[C@]3(C[C@@H](OCC4CC4)CO3)C2)n1 , what is its reported cytotoxicity at 10 µM? -82.9

Given the molecule CC(C)CC(O)C1CCN(Cc2cnc(-c3cccs3)nc2)CC1 (centres undefined) , what is its reported cytotoxicity at 10 µM? -3.18

Given the molecule CN(Cc1cccnc1)C1CC2(CCN(C(=O)c3cnccn3)CC2)C1 , what is its reported cytotoxicity at 10 µM? -0.733

Given the molecule Cc1cnc(C(=O)N2CC[C@H]3[C@@H]2CCC(=O)N3c2cccnc2)cn1 , what is its reported cytotoxicity at 10 µM? -81.9

Given the molecule COc1ccc2c(c1)OCC(CNc1cc(N)nc(SC)n1)C2 (centres undefined) , what is its reported cytotoxicity at 10 µM? 34.4

Given the molecule Cc1cccc2c1nc1n2[C@@H](CNC(=O)c2ccccn2)COC1 , what is its reported cytotoxicity at 10 µM? 6.49
